- PROTOCOL_TEXT: Counterscreen qHTS for Inhibitors of Tau Fibril Formation, Fluorescence Polarization; also: nearly all actives have a fitted effect of over 55% in size
- APPLIED_CONDITIONS: tau K18 P301L Alexa594 fluorescence, heparin fibrillization; series mostly up to 57.7 µM
In all, about 280,000 compounds went through this assay and about 2,600 (0.93%) were called active. Roughly 8% stayed inconclusive and do not appear here. Calls follow the shape of the dose curve; as a rule, active = well fitted curve in the direction sought with a large enough effect; inconclusive = small, poorly fitted or top-dose-only effect; inactive = flat fitted curve, though single readings scatter. The list comes from a sample in which actives are over-represented; it also holds close analogues and randomly drawn compounds.
Choose the fitting class; nothing outside active, inactive is accepted.

Known results for compounds:
> print(dat)
                           molecular.string  group.label
1              COc1ccccc1CSc1nc2ccccc2[nH]1     inactive
2  COc1ccccc1CN1CCC(CNC(=O)c2cnn(-c3ccccc3Cl)c2C2CCN(C(=O)OC(C)(C)C)CC2)CC1     inactive
3  CSc1ccc(CCNC(=O)c2cc(C)nc3c2c(C)nn3-c2cccc(F)c2)cc1     inactive

Request: Dear all, I need the recorded test outcome for Cc1ccc(/C=C(\C#N)C(=O)Nc2cc(C)ccc2C)cc1 , thank you.
Result: inactive

Request: Dear all, I need the recorded test outcome for COc1ccccc1CSc1ncc(-c2ccc([N+](=O)[O-])cc2)[nH]1 , thank you.
Result: active

Request: Dear all, I need the recorded test outcome for COc1ccc(/C=N/NC(=O)c2ccc(Cl)cc2)cc1COC(C)=O , thank you.
Result: inactive

Request: Dear all, I need the recorded test outcome for Cc1cc(C)cc(NC(=S)NCc2ccc(F)cc2)c1 , thank you.
Result: inactive

Request: Dear all, I need the recorded test outcome for COc1ccccc1Cc1nc2ccccc2nc1SCC(=O)N1CCCc2ccccc21 , thank you.
Result: inactive

Request: Dear all, I need the recorded test outcome for Cc1ccc2onc(CC(=O)N3CCN(c4ccc(Cl)cc4)CC3)c2c1 , thank you.
Result: inactive

Request: Dear all, I need the recorded test outcome for COc1ccc(OC)c(-c2nc(C(N)=O)c3c(n2)n(-c2ccc4c(c2)OCO4)c(=O)n3C)c1 , thank you.
Result: inactive

---

- PROTOCOL_TEXT: Counterscreen qHTS for Inhibitors of Tau Fibril Formation, Fluorescence Polarization; also: nearly all actives have a fitted effect of over 55% in size
- APPLIED_CONDITIONS: tau K18 P301L Alexa594 fluorescence, heparin fibrillization; series mostly up to 57.7 µM
About 2,600 (0.93%) of roughly 280,000 compounds were called active. Inconclusive results (about 8%) are left out. Calls come from the whole dose curve; as a rule, active = well fitted curve in the direction sought with a large enough effect; inconclusive = small, poorly fitted or top-dose-only effect; inactive = flat fitted curve, though single readings scatter. Many of the other results were omitted from the sample, so actives are more common in it than they were.
Choose the fitting class; nothing outside active, inactive is accepted.

> print(dat)
                           molecular.string  group.label
1  O=C(CN1CCN(CC(=O)Nc2ccc3c(c2)OCO3)CC1)Nc1ccc(F)cc1     inactive
2   CCOc1ccc(-c2nc(N)ncc2-c2ccccc2OC)c(O)c1     inactive
3  O=C(CSc1nc(C2CC2)nc2ccccc12)Nc1ccc2c(c1)OCCO2     inactive

Request: Dear all, I need the recorded test outcome for O=C(CSc1nc(-c2cccc(F)c2)[nH]c1-c1ccccc1)Nc1ccc2c(c1)OCO2 , thank you.
Result: active

Request: Dear all, I need the recorded test outcome for CCOc1ccccc1Oc1cn[nH]c1-c1ccc(OC)cc1O , thank you.
Result: active

---

- PROTOCOL_TEXT: Counterscreen qHTS for Inhibitors of Tau Fibril Formation, Fluorescence Polarization; also: nearly all actives have a fitted effect of over 55% in size
- APPLIED_CONDITIONS: tau K18 P301L (four-repeat tau fragment) Alexa594 fluorescence, heparin fibrillization; series mostly up to 57.7 µM
- Method: NIH Molecular Libraries Probe Production Network [MLPCN] NIH Chemical Genomics Center [NCGC] Assay Provider: Carlo Ballatore, University of Pennsylvania The microtubule-associated protein tau is an abundant protein in the axons of neurons that stabilizes microtubules. […] Total fluorescence (555 nm excitation and 632 nm emission) was measured to identify fluorescent or absorbent compounds at this wavelength. […]
Hit rate of the full screen: of about 280,000 compounds, about 2,600 (0.93%) were called active. Not shown: some 8% with an inconclusive outcome. Calls follow the shape of the dose curve; as a rule, active = well fitted curve in the direction sought with a large enough effect; inconclusive = small, poorly fitted or top-dose-only effect; inactive = flat fitted curve, though single readings scatter. For the sample, actives were picked, then their nearest neighbours and some compounds at random.
Choose the fitting class; nothing outside active, inactive is accepted.

> print(dat)
                                   molecule  group.label
1   CC(=O)NCCc1nc2cc(NC(=O)c3ccccc3)ccc2n1C     inactive
2  Cc1ccccc1CSc1nc2c([nH]c3ccccc32)c(=O)n1C     inactive
3  Cc1ccccc1Nc1nn2c(=O)c3ccc(C(=O)NCCc4ccc(Cl)cc4)cc3nc2s1     inactive
4  COc1ccccc1CNC(=O)c1ccc(NC(=O)N2CC(C)Sc3ccccc32)cc1 (stereo not given)     inactive
5  O=C(CCCN1C(=O)/C(=C/c2ccccc2)SC1=S)Nc1ccc(O)cc1       active

Request: Dear all, I need the recorded test outcome for COc1cccc(N2CCN(C(=O)CCCCCn3c(=O)[nH]c4ccccc4c3=O)CC2)c1 , thank you.
Result: inactive

Request: Dear all, I need the recorded test outcome for COc1ccc(C)cc1NC(=O)CCc1c(C)nn(-c2ccc(N3CCOCC3)nn2)c1C , thank you.
Result: inactive

Request: Dear all, I need the recorded test outcome for CCC(=O)Nc1ccc2c(c1)nc(CCN1CCN(C)CC1)n2C , thank you.
Result: inactive

Request: Dear all, I need the recorded test outcome for O=C(CCCN1C(=O)/C(=C\c2ccco2)SC1=S)Nc1cccc2ccccc12 , thank you.
Result: inactive

Request: Dear all, I need the recorded test outcome for O=C(CC1N=C2c3ccccc3N=C(SCc3cccc(Cl)c3)N2C1=O)NCc1ccc2c(c1)OCO2 (stereo not given) , thank you.
Result: inactive
